Test system: P. falciparum 3D7 trophozoites
Experiment: Metabolomic fingerprint profiling LC-MS
Format: cell-based, Plasmodium falciparum
Settings: metabolite D-sedoheptulose-1/7-phosphate; S2 Table Metabolomics, change in metabolite level after compound treatment
Assign true to entries whose D-sedoheptulose-1/7-phosphate meets or exceeds -0.1; assign false to the rest.

// below: answered compounds
{"columns": ["COMPOUND", "EXPERIMENTAL SYSTEM", "ASSIGNED CLASS"],
 "data": [
  ["O=C1C(O)=C([C@H]2CC[C@H](c3ccc(Cl)cc3)CC2)C(=O)c2ccccc21 [Atovaquone, reference compound]", "P. falciparum 3D7 trophozoites", "true"],
  ["O=C(CSc1nccn2nc(-c3ccccc3)cc12)Nc1cc(C(F)(F)F)ccc1Cl", "P. falciparum 3D7 trophozoites", "false"],
  ["CN(C)CCCNc1c2ccccc2nc2ccccc12", "P. falciparum 3D7 trophozoites", "true"],
  ["O=C(O)C1Cc2c([nH]c3ccccc23)C(c2ccc(Cl)cc2Cl)N1 (centres unmarked)", "P. falciparum 3D7 trophozoites", "true"],
  ["Cc1cc(C=C2SC(=Nc3ccccc3)N(C3CCCC3)C2=O)c(C)n1-c1ccc(Cl)cc1", "P. falciparum 3D7 trophozoites", "false"],
  ["COc1ccc(C=C2SC(=N)N(c3ccccc3OC)C2=O)cc1", "P. falciparum 3D7 trophozoites", "true"],
  ["CSC1=NC(=Nc2c(C)cccc2C)C2(CCC(C(C)(C)C)CC2)N1c1ccc(Cl)cc1 (centres unmarked)", "P. falciparum 3D7 trophozoites", "false"]
]}

Q. // inclusive: D-sedoheptulose-1/7-phosphate at least -0.1? input: `COc1ccc(-c2cc3c(SCC(=O)Nc4cc(C(F)(F)F)ccc4Cl)nccn3n2)cc1`
A. true

----------
Each record here notes measured NADPH.
System: P. falciparum 3D7 trophozoites
Experiment: Metabolomic fingerprint profiling LC-MS
Type: cell-based, Plasmodium falciparum
Details: S2 Table Metabolomics; metabolite NADPH
No unit in the answer, please; the number alone is enough.

Study these solved cases before continuing.
{"columns": ["MOLECULE", "NADPH"],
 "data": [
  ["Cc1ccc(N2C(=O)C3C(C2=O)C2(c4ccccc4)C(=O)C3(c3ccccc3)C(c3ccccc3)=C2c2ccccc2)cc1 (stereo not drawn) [MMV666062]", -0.2149],
  ["CN1CCN(c2ccc(Nc3c4ccccc4nc4ccccc34)cc2)CC1 [MMV006172]", 2.534],
  ["CCOc1cc2c(cc1OCC)C(c1cc(OC)c(O)cc1Cl)NCC2 (stereo not drawn) [MMV008956]", 0.6672],
  ["O=C1C(O)=C([C@H]2CC[C@H](c3ccc(Cl)cc3)CC2)C(=O)c2ccccc21 [Atovaquone, reference compound]", 0.3866],
  ["CNCCCNc1ccnc2cc(Cl)ccc12 [MMV020500]", 0.8295]
]}

Q. Suppose we examine the molecule COc1ccc(-n2ccnc2SCC(=O)Nc2cc(C)ccc2C)c(OC)c1 [MMV019258] ; what NADPH value has been reported?
A. -0.4851

Q. Sample CC1CN(C(=O)c2sc3ccccc3c2Cl)CC(C)O1 (stereo not drawn) [MMV020492] — what was its NADPH?
A. 1.076

Q. Could you share which NADPH value was measured for CCCN(CCC)CC(O)COc1ccccc1C(=O)Nc1ccccc1 (stereo not drawn) [MMV006455] ?
A. 1.245

Q. Requested read-out: NADPH. Entry: COc1ccc(-c2nc3cc(Cc4ccc5[nH]c(-c6ccc(OC)cc6)nc5c4)ccc3[nH]2)cc1 [MMV007384]
A. -0.9181
